Would you mind telling me the reported Tlag of S-FP of each entry?
- method: In vitro permeation experiment of FP drug-in-adhesive patches in two-chamber diffusion cells
- Assay type: in vitro ADME, rabbit
- cond: permeant S-FP; patch 5% drug (w/w); enhancer equimolar to 5% 4-TER (control: no enhancer)
One number for each entry, in h.

Some compounds with known Tlag of S-FP results, for comparison:
| compound | valueUnits | Tlag of S-FP |
| --- | --- | --- |
| CCCCCCCCC=CCCCCCCCC(=O)OC1(C(C)C)CC=C(C)CC1 (stereo not drawn) [d-4-T-dC18] | h | 4.08 |
| CC1=CC[C@@](O)(C(C)C)CC1 [l-4-TER, l-4-terpineol, reference compound] | h | 4.07 |
| CCCCCCCCC=CCCCCCCCC(=O)OC1(C(C)C)CC=C(C)CC1 (stereo not drawn) [l-4-T-dC18] | h | 3.89 |
| C[C@H](C(=O)O)c1ccc(-c2ccccc2)c(F)c1 | h | 3.82 |
| CCCCCCCCCCCCCC(=O)OC1(C(C)C)CC=C(C)CC1 (stereo not drawn) [d-4-T-C14] | h | 2.04 |
| CCCCCCCCCCCCCC(=O)OC1(C(C)C)CC=C(C)CC1 (stereo not drawn) [l-4-T-C14] | h | 3.37 |
| CCCCCCC(=O)OC1(C(C)C)CC=C(C)CC1 (stereo not drawn) [l-4-T-C7] | h | 4.18 |
| CC1=CCC(O)(C(C)C)CC1 (stereo not drawn) [d-4-TER, d-4-terpineol, reference compound] | h | 2.45 |

Let us examine a further case.
[in] Given the entry CCCCCCC(=O)OC1(C(C)C)CC=C(C)CC1 (stereo not drawn) [d-4-T-C7] , report its measured Tlag of S-FP.
[out] 2.91
